experiment: gradient 5% acetonitrile 3 min, to 50% in 2 min, to 85% in 15 min, held 3 min, 100 µL/min
experimental context: column: Zorbax Extend-C18 2.1 x 50 mm; eluents: water / acetonitrile, 0.1% formic acid
Task for the reader: assign each of the following compounds its reported RP-LC retention time.

// worked examples, RP-LC retention time included
[
  {
    "compound": "CCOc1ccc(N2CC(NC(=O)N3CCN(C(=O)c4ccco4)CC3)CC2=O)cc1 (stereo not drawn)",
    "RP-LC retention time": "632 s"
  },
  {
    "compound": "COc1ccc(-c2n[nH]c3c2C(c2ccc(O)cc2)N(C)C3=O)cc1 (stereo not drawn)",
    "RP-LC retention time": "667 s"
  }
]

Alright, here's another compound for you.
Sample "Cc1cc(NC(=O)c2cccc(N3C(=O)CCC3=O)c2)on1" — what was its RP-LC retention time? 622 s

----------
experiment: gradient 5% acetonitrile 3 min, to 50% in 2 min, to 85% in 15 min, held 3 min, 100 µL/min
experimental context: column: Zorbax Extend-C18 2.1 x 50 mm; eluents: water / acetonitrile, 0.1% formic acid
// classify(record): look up RP-LC retention time in ranges bottom range = under 700 s, center range = from 700 s up to 800 s, top range = 800 s and over

[
  {
    "compound": "O=C(Nc1cc(-c2cccs2)nn1CCO)C1(c2ccccc2)CCOCC1",
    "label value": "center range"
  },
  {
    "compound": "Cc1ccc(-c2nc3cnccn3c2NCCC(=O)NC(C)c2cccs2)cc1 (centres undefined)",
    "label value": "center range"
  },
  {
    "compound": "CC(C)C(=O)NCc1cnn(-c2ccc(C(=O)NCC3CCCO3)cc2)c1 (centres undefined)",
    "label value": "bottom range"
  },
  {
    "compound": "O=C(Nc1cccc(Cl)c1)C1CCN(S(=O)(=O)c2cc(C(=O)N3CCCC3)cs2)CC1",
    "label value": "top range"
  },
  {
    "compound": "NC(=O)c1oc2ccccc2c1NC(=O)c1coc2ccccc2c1=O",
    "label value": "center range"
  }
]

Assign a bin to "O=C(CCc1nnc2ccc(NCc3ccco3)nn12)N1CCN(c2ccccn2)CC1" bottom range

Please let me know in which category the item "CCOC(=O)C1CCN(C(=O)C2CCN(c3cnc4nccnc4c3)CC2)CC1" belongs. bottom range

Category of "COC(=O)c1ccc(NC(=O)N(C)CCc2noc(-c3ccccc3)n2)cc1" , please. top range

Hi, small favor: classify "Cc1cccc(N2CCN(Cc3nc4nc(C)cc(N5CCOCC5)n4n3)CC2)c1" by its RP-LC retention time when you get a moment. bottom range

Please classify: COCC1CN(C)CC12CCN(S(=O)(=O)c1cc(F)ccc1C)CC2 (centres undefined) bottom range

Determine which band this compound sits in: CC(=O)N1CCCC(CCc2nnc(C3CCOCC3)o2)C1 (centres undefined) bottom range

Band for the recorded RP-LC retention time of "Cc1ccc(CCNC(=O)c2cc3sccc3n2Cc2ccc(Cl)cc2)cc1" ? top range

----------
experiment: gradient 5% acetonitrile 3 min, to 50% in 2 min, to 85% in 15 min, held 3 min, 100 µL/min
experimental context: column: Zorbax Extend-C18 2.1 x 50 mm; eluents: water / acetonitrile, 0.1% formic acid
# label = bin(measured RP-LC retention time), where bins are lower (below 700 s), middle (700 s to below 900 s), upper (900 s or more)

Field: example entries. Status: answers known.
[
  {
    "compound": "O=C(NCCc1csc(-c2ccccc2)n1)C1CCN(S(=O)(=O)c2ccc(Cl)cc2)CC1",
    "label value": "upper"
  },
  {
    "compound": "CCC(CC)NC(=O)C1Cn2cccc2C(=O)N1CC(C)C (stereo not given)",
    "label value": "middle"
  },
  {
    "compound": "COc1ccc(NC(=O)C2CCCN(c3nnc4ccccn34)C2)cc1 (stereo not given)",
    "label value": "lower"
  },
  {
    "compound": "Cc1ccc(-c2nc(N)n(C(=O)C3CC3)n2)cc1",
    "label value": "middle"
  },
  {
    "compound": "CC(C)(C)c1noc(-c2cccnc2-n2cnc(C(=O)NC3CCCCC3)c2)n1",
    "label value": "middle"
  }
]

Kindly identify the class of "CN(C)[C@@H]1CN(C(=O)c2ccc(F)cc2Cl)C[C@H]1CO" . lower

# bin lookup: classify CC(C)CCNC(=O)c1ccc2c(c1)NC(=O)C1CCCCN21 (stereo not given) by its RP-LC retention time middle

Band for the recorded RP-LC retention time of "CCn1ccc(C(=O)N2CCCn3cc(-c4cccc(C#N)c4)nc32)n1" ? lower

----------
experiment: gradient 5% acetonitrile 3 min, to 50% in 2 min, to 85% in 15 min, held 3 min, 100 µL/min
experimental context: column: Zorbax Extend-C18 2.1 x 50 mm; eluents: water / acetonitrile, 0.1% formic acid
property name: RP-LC retention time (s)
One number for each entry, in s.

Use the examples below as a reference point.
[
  {
    "compound": "CCc1ccc(OCC(=O)Nc2nnc(C3CC(=O)N(c4ccc(Cl)cc4)C3)o2)cc1 (stereo not drawn)",
    "readout unit": "s",
    "RP-LC retention time": 888
  },
  {
    "compound": "Cc1nc(-c2cccc(-c3noc(CNC(=O)c4ccccc4)n3)c2)cs1",
    "readout unit": "s",
    "RP-LC retention time": 918
  }
]

# ---- query compound ----
RP-LC retention time for "Cc1cc(C)n2c(Nc3c(C)cccc3C)c(-c3cccc(Cl)c3)nc2n1" ? 902

----------
experiment: gradient 5% acetonitrile 3 min, to 50% in 2 min, to 85% in 15 min, held 3 min, 100 µL/min
experimental context: column: Zorbax Extend-C18 2.1 x 50 mm; eluents: water / acetonitrile, 0.1% formic acid
property name: RP-LC retention time (s)
Answers are plain numbers, in s.

[
  {
    "smiles code": "O=C(Nc1nc2ccccc2s1)C1CCN(C(=O)c2cccc(F)c2)CC1",
    "RP-LC retention time (s)": 821
  },
  {
    "smiles code": "CCOC(=O)CNC(=O)NCc1cccn1Cc1ccccc1",
    "RP-LC retention time (s)": 793
  }
]

Continue with the next compound.
# input compound: "O=C(Nc1cc(-c2ccccn2)no1)c1ccccc1Br" ; wanted: its RP-LC retention time 789

----------
experiment: gradient 5% acetonitrile 3 min, to 50% in 2 min, to 85% in 15 min, held 3 min, 100 µL/min
experimental context: column: Zorbax Extend-C18 2.1 x 50 mm; eluents: water / acetonitrile, 0.1% formic acid
For each record, write down the corresponding RP-LC retention time.
One number for each entry, in s.

Solved entries (count: 5):
[
  {
    "molecule": "CCn1cc(-c2ccc(Cl)cc2)cc1C(=O)NC(C)c1cccnc1 (stereo unspecified)",
    "RP-LC retention time (s)": 758
  },
  {
    "molecule": "CC(=O)Nc1ccc(C(=O)N2CCCCCC2)o1",
    "RP-LC retention time (s)": 665
  },
  {
    "molecule": "CCN(C(=O)Cn1cnc2nc3c(cc2c1=O)CCCC3)c1cccc(Cl)c1",
    "RP-LC retention time (s)": 850
  },
  {
    "molecule": "COc1ccc(CNC(=O)c2ccc3ncnc(N4CCCC4)c3c2)cc1",
    "RP-LC retention time (s)": 624
  },
  {
    "molecule": "Cc1ccc(-c2nnc(SCC(=O)Nc3cc(C)ccc3C)o2)cc1",
    "RP-LC retention time (s)": 802
  }
]

Consider the additional molecule presented here.
Return reported RP-LC retention time; argument: "COc1ccc(NC(=O)C2CCN(S(=O)(=O)c3cc(-c4noc(C)n4)cs3)CC2)cc1" 871

----------
experiment: gradient 5% acetonitrile 3 min, to 50% in 2 min, to 85% in 15 min, held 3 min, 100 µL/min
experimental context: column: Zorbax Extend-C18 2.1 x 50 mm; eluents: water / acetonitrile, 0.1% formic acid
Label MET when RP-LC retention time is at or above 700 s; anything below gets NOT MET.

Check this compound for RP-LC retention time at or above 700 s: "Cc1ccc(CNC(=O)C2CCN(c3cn[nH]c(=O)c3)CC2)cc1" NOT MET

Test whether the compound CCc1cccc(NC(=O)Cn2cnc3nc(N4CCCC(C(=O)NC(C)C)C4)sc3c2=O)c1 (stereo not given) records RP-LC retention time of 700 s or higher. MET

Given "CC(C)(C)C(=O)Nc1nnc(-c2cccs2)o1" , state whether its RP-LC retention time is at least 700 s. NOT MET

----------
experiment: gradient 5% acetonitrile 3 min, to 50% in 2 min, to 85% in 15 min, held 3 min, 100 µL/min
experimental context: column: Zorbax Extend-C18 2.1 x 50 mm; eluents: water / acetonitrile, 0.1% formic acid
property name: RP-LC retention time (s)
Give bare numbers, in s.

[
  {
    "smiles code": "c1ccc(-c2noc(-c3ccc(N4CCN(C5CCCCC5)CC4)nc3)n2)cc1",
    "property name": "RP-LC retention time",
    "readout unit": "s",
    "meas value": 772
  },
  {
    "smiles code": "COc1ccc(C(=O)N2C[C@@H]3C[C@H](NS(C)(=O)=O)[C@H]2C3)c(C)c1",
    "property name": "RP-LC retention time",
    "readout unit": "s",
    "meas value": 629
  }
]

Consider now this further compound.
Entry under review: "CCOCCCNCc1ccc(-c2ccccc2F)o1" . Reported RP-LC retention time? 672
